Test system: SW480
Experiment: TCF/Wnt firefly luciferase reporter signal relative to plate median (fraction of plate median); higher = higher Wnt reporter signal
Settings: 5 µM; treatment time 24 h; reporter: 7TFP
MEASURED_ATTRIBUTE: TCF/Wnt firefly luciferase reporter signal

| MOLECULE | RECORDED_NUMBER |
| --- | --- |
| O=C(O)c1cccnc1 | 0.976 |
| Clc1ccc(C(c2ccccc2Cl)C(Cl)Cl)cc1 (stereo not drawn) | 1.03 |
| COc1ccnc(C[S+]([O-])c2nc3cc(OC(F)F)ccc3[nH]2)c1OC (stereo not drawn) | 1.05 |
| O=c1cc(-c2ccc(O)cc2)oc2cc(O[C@@H]3O[C@H](CO)[C@@H](O)[C@H](O)[C@H]3O)cc(O)c12 | 1.07 |
| COc1cc(/C=C/C(=O)O)ccc1O [Ferulic acid (Biofocus)] | 1.04 |
| CN1CCCN=C1/C=C/c1cccs1 | 0.994 |
| C#C[C@]1(OC(C)=O)CC[C@H]2[C@@H]3CCC4=CC(=O)CC[C@@H]4[C@H]3CC[C@@]21C | 0.768 |
| CC(CCc1ccc(O)cc1)NCCc1ccc(O)c(O)c1 (stereo not drawn) | 1.02 |
| CC(C)[C@@H](C)/C=C/[C@@H](C)[C@H]1CC[C@H]2C3=CCC4CC(=O)CC[C@]4(C)[C@H]3CC[C@]12C (stereo partly drawn) | 1.06 |
| N[C@@H](Cc1cc(I)c(Oc2cc(I)c(O)c(I)c2)c(I)c1)C(=O)O | 1.17 |
| Cc1cc(=O)oc2cc(O)c(O)cc12 | 1.08 |
| Nc1ccc(S(=O)(=O)Nc2cnc3ccccc3n2)cc1 | 1.04 |
| CCc1cccc2c3c([nH]c12)C(CC)(CC(=O)O)OCC3 (stereo not drawn) | 1.08 |
| O=C(O)/C=C/C=C/c1ccccc1 | 0.729 |
| CC(C)C[C@H]1NC(=O)[C@@H](NC(=O)c2ncccc2O)[C@@H](C)OC(=O)[C@H](c2ccccc2)N(C)C(=O)[C@H](C)NC(=O)[C@H]([C@@H](C)C(C)C)N(C)C(=O)CN(C)C(=O)[C@H]2C[C@@H](O)CN2C1=O [Viridogrisein] | 0.999 |
| Fc1ccc(C(c2ccc(F)cc2)N2CCN(C/C=C/c3ccccc3)CC2)cc1 | 0.917 |
| CC[C@H]1OC(=O)C[C@@H](O)[C@H](C)[C@@H](O[C@@H]2O[C@H](C)[C@@H](O)[C@H](N(C)C)[C@H]2O)[C@@H](CCN2C[C@H](C)C[C@H](C)C2)C[C@@H](C)C(=O)/C=C/C(C)=C/[C@@H]1CO[C@@H]1O[C@H](C)[C@@H](O)[C@@H](OC)[C@H]1OC | 1.09 |
| CC[C@@H](C(=O)[C@@H](C)[C@@H](O)[C@H](C)CCc1ccc(C)c(O)c1C(=O)O)[C@H]1O[C@](CC)([C@H]2CC[C@](O)(CC)[C@H](C)O2)C[C@@H]1C | 1.03 |
